- System: Mycolicibacterium mageritense
- procedureDetails: Antibacterial activity against nonpigmented rapidly growing Mycobacterium mageritense after 3 days by broth microdilution method
- Assay type: functional
- details: 72 h
The following compounds are listed with their measured MIC values.

{"inputSmiles": "CC[C@H]1OC(=O)[C@H](C)[C@@H](O[C@H]2C[C@@](C)(OC)[C@@H](O)[C@H](C)O2)[C@H](C)[C@@H](O[C@@H]2O[C@H](C)C[C@H](N(C)C)[C@H]2O)[C@](C)(OC)C[C@@H](C)C(=O)[C@H](C)[C@@H](O)[C@]1(C)O", "MIC": "2 mg/L"}
{"inputSmiles": "CC[C@H]1OC(=O)[C@H](C)[C@@H](O[C@H]2C[C@@](C)(OC)[C@@H](O)[C@H](C)O2)[C@H](C)[C@@H](O[C@@H]2O[C@H](C)C[C@H](N(C)C)[C@H]2O)[C@](C)(O)C[C@@H](C)CN(C)[C@H](C)[C@@H](O)[C@]1(C)O", "MIC": "2 mg/L"}
